Known kon of a selection of binders
experimental system: T1, full-length hANGPTL4 (amino acid residues 26-406 of SEQ ID NO:476) with a C-terminal hexa-histidine tag (human, UniProt Q9BY76 26-406)
T1 construct: also called hANGPTL4-His; hANGPTL4(26-406)-His
T1 sequence: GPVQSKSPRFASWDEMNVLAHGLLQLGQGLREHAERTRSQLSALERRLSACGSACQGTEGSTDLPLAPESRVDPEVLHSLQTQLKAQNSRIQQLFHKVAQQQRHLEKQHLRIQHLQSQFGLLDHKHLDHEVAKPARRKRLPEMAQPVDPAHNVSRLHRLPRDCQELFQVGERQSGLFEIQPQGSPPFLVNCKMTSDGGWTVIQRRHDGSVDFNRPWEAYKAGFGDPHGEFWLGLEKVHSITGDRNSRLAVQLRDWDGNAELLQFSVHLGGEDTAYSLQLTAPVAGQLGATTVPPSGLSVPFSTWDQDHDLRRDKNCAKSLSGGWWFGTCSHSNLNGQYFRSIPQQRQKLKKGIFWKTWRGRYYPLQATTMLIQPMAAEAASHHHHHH
protocol details: SPR (Biacore), 25° C., pH 7.2, antigen amino-coupled 450 RU

binder	value unit	kon
H1H268P (antibody, V domains shown, also called entire H1H268 mAb; Full mAb) VH: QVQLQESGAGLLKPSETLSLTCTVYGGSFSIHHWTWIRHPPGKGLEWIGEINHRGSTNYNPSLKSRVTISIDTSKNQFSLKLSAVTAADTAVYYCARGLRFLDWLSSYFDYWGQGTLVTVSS VL: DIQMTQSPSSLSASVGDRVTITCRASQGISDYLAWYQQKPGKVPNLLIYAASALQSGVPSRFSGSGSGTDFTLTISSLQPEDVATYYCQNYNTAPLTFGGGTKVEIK	M⁻¹ s⁻¹	489000
H1H284P (antibody, V domains shown, also called entire H1H284 mAb; Full mAb) VH: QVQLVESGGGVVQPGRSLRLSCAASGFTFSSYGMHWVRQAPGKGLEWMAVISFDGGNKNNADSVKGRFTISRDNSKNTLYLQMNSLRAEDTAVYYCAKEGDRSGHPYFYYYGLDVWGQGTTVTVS VL: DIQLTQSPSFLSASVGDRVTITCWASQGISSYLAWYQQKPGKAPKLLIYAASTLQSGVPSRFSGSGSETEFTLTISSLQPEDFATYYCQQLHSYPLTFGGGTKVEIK	M⁻¹ s⁻¹	850000
H1H284P Fab fragment (Fab, V domains shown, Fab made by papain digestion of H1H284P (IgG1); also called H1H284 Fab) VH: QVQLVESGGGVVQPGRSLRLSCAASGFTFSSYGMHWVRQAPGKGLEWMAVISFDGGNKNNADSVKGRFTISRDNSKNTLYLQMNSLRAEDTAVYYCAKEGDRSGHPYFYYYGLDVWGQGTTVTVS VL: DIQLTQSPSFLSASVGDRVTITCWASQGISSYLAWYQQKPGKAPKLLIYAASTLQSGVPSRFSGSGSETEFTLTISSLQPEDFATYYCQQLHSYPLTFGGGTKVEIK	M⁻¹ s⁻¹	1.11e+06
H1H268P Fab fragment (Fab, V domains shown, Fab made by papain digestion of H1H268P (IgG1); also called H1H268 Fab) VH: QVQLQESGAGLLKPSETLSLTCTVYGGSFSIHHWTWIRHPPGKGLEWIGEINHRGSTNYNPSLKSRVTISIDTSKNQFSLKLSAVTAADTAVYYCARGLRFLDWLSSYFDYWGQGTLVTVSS VL: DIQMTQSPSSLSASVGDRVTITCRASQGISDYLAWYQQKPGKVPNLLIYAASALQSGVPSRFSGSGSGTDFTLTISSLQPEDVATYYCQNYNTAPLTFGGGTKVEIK	M⁻¹ s⁻¹	726000
